Assay: Half life in Beagle dog at 0.5 mg/kg, iv measured upto 24 hrs by LC-MS/MS analysis
Type: ADME, organism-based, Canis lupus familiaris
Details: in vivo
Measured quantity: half-life

Smiles record | Experimental value
CNC(=O)c1cc(C(=O)N[C@H]2[C@@H]3C[C@@H](O)C[C@@H]32)cc2c1OC[C@@]2(C)c1ccccc1 | 2.9 h

* * *

Each entry below carries its recorded logD.
Assay: Lipophilicity, logD of compound at pH 7.4
Type: physicochemical
Conditions: buffer

Compound | logD
CNC(=O)c1cc(C(=O)NC2CC2)cc2c1OC[C@H]2c1cccc2[nH]ccc12 | 3.5
CCC(=O)N1C[C@@H]2[C@H](C1)[C@H]2NC(=O)c1cc(C(=O)NC)c2c(c1)[C@H](c1ccccc1)CO2 | 3.4
CNC(=O)c1cc(C(=O)NC)c2c(c1)[C@](C)(c1ccccc1)CO2 | 3.4
CNC(=O)c1cc(C(=O)NC2CC2)cc2c1O[C@H](CF)[C@H]2c1ccccc1 | 3.9
CNC(=O)c1cc(C(=O)N[C@H]2[C@@H]3C[C@@H](O)C[C@@H]32)cc2c1OC[C@@]2(C)c1ccccc1 | 3.3
CNC(=O)c1cc(C(=O)N[C@H]2CC[C@H](O)CC2)cc2c1OC[C@@]2(C)c1ccccc1 | 3.3
CNC(=O)c1cc(C(=O)N[C@H]2C[C@@H]2C)cc2c1OC[C@@]2(CO)c1ccccc1 | 3.3
CNC(=O)c1cc(C(=O)N[C@H]2C[C@@H]2C)cc2c1OC[C@H]2c1ccccc1 | 4.5
CNC(=O)c1cc(C(N)=O)cc2c1O[C@H](CF)[C@H]2c1ccccc1 | 2.9
CC[C@@]1(c2ccccc2)COc2c(C(=O)NC)cc(C(=O)N[C@H]3[C@@H]4COC[C@@H]43)cc21 | 4.2
CNC(=O)c1cc(C(=O)N[C@H]2[C@@H]3COC[C@@H]32)cc2c1OC[C@H]2c1ccc(F)cc1 | 3.6
CNC(=O)c1cc(C(=O)N[C@H]2[C@@H]3COC[C@@H]32)cc2c1O[C@H](CF)[C@H]2c1ccccc1 | 3.6
CNC(=O)c1cc(C(=O)N[C@H]2[C@@H]3COC[C@@H]32)cc2c1OC[C@H]2c1ccccn1 (racemic) | 1.6
CNC(=O)c1cc(C(=O)N[C@H]2[C@@H]3C[C@H](O)C[C@@H]32)cc2c1OC[C@@]2(C)c1ccccc1 | 3.7
CNC(=O)c1cc(C(=O)N[C@H]2C[C@@H]2C)cc2c1OC[C@@]2(C)c1ccccc1 | 4.7
CNC(=O)c1cc(C(=O)NC)c2c(c1)[C@H](c1ccccc1)[C@@H](CF)O2 | 3.3
CNC(=O)c1cc(C(=O)N[C@H]2[C@@H]3COC[C@@H]32)cc2c1OC[C@H]2c1ccccc1C | 4
CNC(=O)c1cc(C(=O)NC2CC2)cn(Cc2ccccc2)c1=O | 3.1
CNC(=O)c1cc(C(=O)NC2CC2)cc2c1OC[C@@]2(C)c1ccccc1 | 4
CNC(=O)c1cc(C(=O)NC2CC2)cc2c1OC[C@H]2c1cccc(F)c1 | 3.7
CNC(=O)c1cc(C(=O)NC2CC2)cc2c1OC[C@H]2c1ccc(F)cc1 | 3.8
CNC(=O)c1cc(C(=O)N[C@H]2[C@@H]3COC[C@@H]32)cc2c1OC[C@@]2(CO)c1ccccc1 | 2.4
CNC(=O)c1cc(C(=O)N[C@H]2[C@@H]3COC[C@@H]32)cc2c1OC[C@H]2c1ccncc1 (racemic) | 1.3
CNC(=O)c1cc(C(=O)N[C@H]2[C@@H]3COC[C@@H]32)cc2c1OC[C@H]2C1CCOCC1 | 2.1
CNC(=O)c1cc(C(=O)NCCc2cnn(C)c2)cc2c1OC[C@H]2c1ccccc1 | 3.2
CNC(=O)c1cc(C(=O)N[C@H]2[C@@H]3COC[C@@H]32)cc2c1OC[C@H]2c1cccc(OC)c1 (racemic) | 3.2
CNC(=O)c1cc(C(=O)N[C@H]2[C@@H]3C[C@@H](O)C[C@@H]32)cc2c1OC[C@H]2c1ccccc1 | 2.9
CNC(=O)c1cc(C(=O)N[C@@H]2C[C@H]2C)cc2c1O[C@H](CF)[C@H]2c1ccccc1 | 4.5
CNC(=O)c1cc(C(=O)NC2CC2)cc2c1OC[C@H]2c1ccccc1 | 3.6
CNC(=O)c1cc(C(N)=O)cc2c1OC[C@H]2c1ccccc1 | 2.7
CNC(=O)c1cc(C(=O)N[C@H]2[C@@H]3COC[C@@H]32)cc2c1OC[C@H]2c1cccnc1 (racemic) | 1.4
CNC(=O)c1cc(C(=O)NCCc2cnn(C)c2)cc2c1OC[C@H]2c1cccc2[nH]ccc12 | 3.2
CNC(=O)c1cc(C(=O)N[C@H]2[C@@H]3COC[C@@H]32)cc2c1OC[C@H]2c1cccc2[nH]ccc12 | 3.1
CNC(=O)c1cc(C(=O)NC)c2c(c1)[C@H](c1ccccc1)CO2 | 3.2
CNC(=O)c1cc(C(=O)N[C@H]2[C@@H]3COC[C@@H]32)cc2c1OC[C@@]2(C)c1ccccc1 | 3.7
